The measurements presented in this section are drawn from patent US12637480B2.

Assay Target: human STING (hSTING) R232 variant in THP1-Dual KI-hSTING-R232 Cells (Homo sapiens, UniProt Q86WV6, H232R)
Sequence (Q86WV6 whole entry H232R): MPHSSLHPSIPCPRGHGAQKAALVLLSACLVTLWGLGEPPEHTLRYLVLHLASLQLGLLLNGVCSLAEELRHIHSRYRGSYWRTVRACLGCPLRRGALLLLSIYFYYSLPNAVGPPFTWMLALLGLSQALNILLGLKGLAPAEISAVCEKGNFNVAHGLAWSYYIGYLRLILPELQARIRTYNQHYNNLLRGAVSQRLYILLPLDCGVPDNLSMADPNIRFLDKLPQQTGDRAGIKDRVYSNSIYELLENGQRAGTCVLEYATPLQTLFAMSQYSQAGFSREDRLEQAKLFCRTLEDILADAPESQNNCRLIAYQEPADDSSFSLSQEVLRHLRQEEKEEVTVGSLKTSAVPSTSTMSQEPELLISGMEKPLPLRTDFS
Protocol Description: STING cellular assay in THP1-Dual KI-hSTING-R232 cells (ISG54 Lucia luciferase reporter, QUANTI-Luc)
pEC50: −log10 of the molar value. Where a name gives a salt, the structure may show the parent alone.

Molecule	pEC50
CCn1nc(C)cc1C(=O)Nc1nc2cc(C(N)=O)cnc2n1C/C=C/Cn1c2nc(-c3cc(C)nn3CC)ncc2c2cc(C(N)=O)cc(OCCCCNC)c21 [Example 3-AB-HCl]	7.64
CCn1nc(C)cc1C(=O)Nc1nc2cc(C(N)=O)cnc2n1C/C=C/Cn1c2nc(-c3cc(C)nn3CC)ncc2c2cc(C(N)=O)cc(OCCCN(C)C(=O)CON)c21	8.44
CCn1nc(C)cc1C(=O)Nc1nc2cc(C(N)=O)cnc2n1C/C=C/Cn1c2nc(-c3cc(C)nn3CC)ncc2c2cc(C(N)=O)cc(OCCC3CN(C(=O)OC(C)(C)C)C3)c21	9.11
CCn1nc(C)cc1C(=O)Nc1nc2cc(C(N)=O)cnc2n1C/C=C/Cn1c2nc(-c3cc(C)nn3CC)ncc2c2cc(C(N)=O)cc(OCCCC3CCN(C(=O)OC(C)(C)C)CC3)c21	9.00
CCn1nc(C)cc1C(=O)Nc1nc2cc(C(N)=O)cnc2n1C/C=C/Cn1c2nc(-c3cc(C)nn3CC)ncc2c2cc(C(N)=O)cc(OCCCN(C)C(=O)OC(C)(C)C)c21	9.24
CCn1nc(C)cc1C(=O)Nc1nc2cc(C(N)=O)cnc2n1C/C=C/Cn1c2nc(-c3cc(C)nn3CC)ncc2c2cc(C(N)=O)cc(OCCCC3CCNCC3)c21	7.80
CCn1nc(C)cc1C(=O)Nc1nc2cc(C(N)=O)cnc2n1C/C=C/Cn1c2nc(-c3cc(C)nn3CC)ncc2c2cc(C(N)=O)cc(OCCCNC)c21	8.21
CCn1nc(C)cc1C(=O)Nc1nc2cc(C(N)=O)cnc2n1C/C=C/Cn1c2nc(-c3cc(C)nn3CC)ncc2c2cc(C(N)=O)cc(OCCC3CNC3)c21	7.52
CCn1nc(C)cc1C(=O)Nc1nc2cc(C(N)=O)cnc2n1C/C=C/Cn1c2nc(-c3cc(C)nn3CC)ncc2c2cc(C(N)=O)cc(OCCCC3CN(C(=O)OC(C)(C)C)C3)c21	8.80
CCn1nc(C)cc1C(=O)Nc1nc2cc(C(N)=O)cnc2n1C/C=C/Cn1c2nc(-c3cc(C)nn3CC)ncc2c2cc(C(N)=O)cc(OCCCCN(C)C(=O)OC(C)(C)C)c21	9.28
CCn1nc(C)cc1C(=O)Nc1nc2cc(C(N)=O)cnc2n1C/C=C/Cn1c2nc(-c3cc(C)nn3CC)ncc2c2cc(C(N)=O)cc(OCCCN3CCN(C(=O)CON)CC3)c21	8.00
CCn1nc(C)cc1C(=O)Nc1nc2cc(C(N)=O)cnc2n1C/C=C/Cn1c2nc(-c3cc(C)nn3CC)ncc2c2cc(C(N)=O)cc(OCCC3CCN(C(=O)OC(C)(C)C)CC3)c21	9.05
CCn1nc(C)cc1C(=O)Nc1nc2cc(C(N)=O)cnc2n1C/C=C/Cn1c2nc(-c3cc(C)nn3CC)ncc2c2cc(C(N)=O)cc(OCCC3CCNCC3)c21	7.54
CCn1nc(C)cc1C(=O)Nc1nc2cc(C(N)=O)cnc2n1C/C=C/Cn1c2nc(-c3cc(C)nn3CC)ncc2c2cc(C(N)=O)cc(OCCCN3CCN(C(=O)OC(C)(C)C)CC3)c21	9.34
CCn1nc(C)cc1C(=O)Nc1nc2cc(C(N)=O)cnc2n1C/C=C/Cn1c2nc(-c3cc(C)nn3CC)ncc2c2cc(C(N)=O)cc(OCCCC3CNC3)c21	7.57
CCn1nc(C)cc1C(=O)Nc1nc2cc(C(N)=O)cnc2n1C/C=C/Cn1c2nc(-c3cc(C)nn3CC)ncc2c2cc(C(N)=O)cc(OCCCN3CCNCC3)c21 [Example 2-AB-HCl]	7.96
